biological target: T1, Human CD3 epsilon (CD3ε) of the T cell receptor complex on cells (human, UniProt P07766 23-207); test: flow cytometry, E. coli supernatant on human T cells
T1 construct: On Jurkat cells and primary human (pan) T cells; also called T-cell surface glycoprotein CD3 epsilon chain; T3E
T1 sequence (P07766 23-207 limits assumed, one chain of several): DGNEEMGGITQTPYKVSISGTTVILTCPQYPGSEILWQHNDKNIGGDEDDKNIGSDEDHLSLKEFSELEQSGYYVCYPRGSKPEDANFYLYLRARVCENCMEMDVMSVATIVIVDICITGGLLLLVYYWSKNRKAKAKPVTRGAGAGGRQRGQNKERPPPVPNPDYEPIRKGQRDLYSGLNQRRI

[
  {
    "binder": "CD3W238-HL-E.c. (scFv, E. coli supernatant) scFv: EVQLVESGGGLVKPGGSLRLSCAASGFTFSRYNMNWVRQAPGKGLEWVSSISTSSNYIYYADSVKGRFTFSRDNAKNSLDLQMSGLRAEDTAIYYCTRGWGPFDYWGQGTLVTVSSGTEGKSSGSGSESKSTDIQMTQSPSSLSASVGDRVTITCRARQSIGTAIHWYQQKPGKAPKLLIYYASESISGVPSRFSGSGSGTDFTLTISSLQPEDFATYYCQQSNSWPYTFGQGTKLEIKGPGGQHHHHHHGAYPYDVPDYAS",
    "MFI (n = 2)": 137000
  },
  {
    "binder": "CD3W241-HL-E.C. (scFv) EVQLVESGGGLVKPGGSLRLSCAASGFTFSRYNMNWVRQAPGKGLEWVSSISTSSNYIYYADSVKGRFTFSRDNAKNSLDLQMSGLRAEDTAIYYCTRGWGPFDYWGQGTLVTVSSGTEGKSSGSGSESKSTDIQMTQSPSSLSASVGDRVTITCRARQSIGTAIHWYQQKPGKAPKLLIYYASESISGVPSRFSGSGSGTDFTLTISSVQPEDFATYYCQQSNSWPYTFGQGTKLEIKGPGGQHHHHHHGAYPYDVPDYAS",
    "MFI (n = 2)": 121000
  },
  {
    "binder": "CD3W246-HL-E.c. (scFv, E. coli supernatant) scFv: EVQLVESGGGLVKPGGSLRLSCAASGFTFSRYNMNWVRQAPGKGLEWVSSISTSSNYIYYADSVKGRFTFSRDNAKNSLDLQMSGLRAEDTAIYYCTRGWGPFDYWGQGTLVTVSSGTEGKSSGSGSESKSTDIQMTQSPSSLSASVGDRVTITCRARQSIGTAIHWYQQKPGKAPKLLIKYASESISGVPSRFSGSGSGTDFTLTISSVQPEDFATYYCQQSGSWPYTFGQGTKLEIKGPGGQHHHHHHGAYPYDVPDYAS",
    "MFI (n = 2)": 154000
  },
  {
    "binder": "CD3W248-HL-E.c. (scFv, E. coli supernatant) scFv: EVQLVESGGGLVKPGGSLRLSCAASGFTFSRYNMNWVRQAPGKGLEWVSSISTSSNYIYYADSVKGRFTFSRDNAKNSLDLQMSGLRAEDTAIYYCTRGWGPFDYWGQGTLVTVSSGTEGKSSGSGSESKSTDILLTQSPGILSVSPGERVSFSCRARQSIGTAIHWYQQRTNGSPRLLIKYASESISGIPSRFSGSGSGTDFTLTINSVESEDIADYYCQQSGSWPYTFGGGTKLEIKGPGGQHHHHHHGAYPYDVPDYAS",
    "MFI (n = 2)": 60400
  },
  {
    "binder": "CD3W243-HL-E.c. (scFv, E. coli supernatant) scFv: EVQLVESGGGLVKPGGSLRLSCAASGFTFSRYNMNWVRQAPGKGLEWVSSISTSSNYIYYADSVKGRFTFSRDNAKNSLDLQMSGLRAEDTAIYYCTRGWGPFDYWGQGTLVTVSSGTEGKSSGSGSESKSTDIQMTQSPSSLSASVGDRVTITCRARQSIGTAIHWYQQKPGKAPKLLIKYASESISGVPSRFSGSGSGTDFTLTISSVQPEDFATYYCQQSNSWPYTFGQGTKLEIKGPGGQHHHHHHGAYPYDVPDYAS",
    "MFI (n = 2)": 111000
  }
]
